FYI, the data here is from ChEMBL document CHEMBL2413038.

system: Plasma; assay: Inhibition of beta-hematin formation in Plasmodium yoelii-infected Swiss albino mouse plasma using hemin as substrate after 16 hrs; type: functional, cell-free
We begin with a simple list: items and their reported IC50.
readout: IC50 (µg/mL)

>>> observed_result("CC(C)(C)n1nnnc1C(NCCCNc1ccnc2cc(Cl)ccc12)c1cccc2ccccc12 (stereo unspecified)")
4.45
>>> observed_result("CC(C)(C)n1nnnc1C(Nc1ccc(Nc2ccnc3cc(Cl)ccc23)cc1)c1cccc2ccccc12 (stereo unspecified)")
5.12
>>> observed_result("COc1cc(C(Nc2ccc(Nc3ccnc4cc(Cl)ccc34)cc2)c2nnnn2C(C)(C)C)cc(OC)c1OC (stereo unspecified)")
5.65
>>> observed_result("CC(C)(C)n1nnnc1C(NCCCNc1ccnc2cc(Cl)ccc12)c1ccc(Cl)cc1 (stereo unspecified)")
5.95
>>> observed_result("CC(C)(C)n1nnnc1C(NCCNc1ccnc2cc(Cl)ccc12)c1ccc(Cl)cc1 (stereo unspecified)")
6.15
>>> observed_result("CC(C)(C)n1nnnc1C(Nc1ccc(Nc2ccnc3cc(Cl)ccc23)cc1)c1ccc(Br)cc1 (stereo unspecified)")
5.65
>>> observed_result("CCc1ccc(C(Nc2ccc(Nc3ccnc4cc(Cl)ccc34)cc2)c2nnnn2C(C)(C)C)cc1 (stereo unspecified)")
5.95
>>> observed_result("CCN(CC)CCCC(C)Nc1ccnc2cc(Cl)ccc12 (stereo unspecified)")
3.95
>>> observed_result("Clc1ccc2c(Nc3ccc(NC(c4ccc(Br)cc4)c4nnnn4C4CCCCC4)cc3)ccnc2c1 (stereo unspecified)")
4.38
>>> observed_result("CC(C)(C)n1nnnc1C(Nc1ccc(Nc2ccnc3cc(Cl)ccc23)cc1)c1ccc(F)cc1 (stereo unspecified)")
5.49
>>> observed_result("COc1ccc(C(NCCCNc2ccnc3cc(Cl)ccc23)c2nnnn2C(C)(C)C)cc1OC (stereo unspecified)")
5.5
>>> observed_result("CC(C)(C)n1nnnc1C(Nc1ccc(Nc2ccnc3cc(Cl)ccc23)cc1)c1ccccc1 (stereo unspecified)")
5.55
>>> observed_result("CC(C)(C)n1nnnc1C(c1ccc(Cl)cc1)N1CCN(c2ccnc3cc(Cl)ccc23)CC1 (stereo unspecified)")
5.32
>>> observed_result("COc1ccc(C(Nc2ccc(Nc3ccnc4cc(Cl)ccc34)cc2)c2nnnn2C2CCCCC2)cc1OC (stereo unspecified)")
5.19
>>> observed_result("COc1ccc(C(Nc2ccc(Nc3ccnc4cc(Cl)ccc34)cc2)c2nnnn2C(C)(C)C)cc1 (stereo unspecified)")
5.55
>>> observed_result("CC(C)(C)n1nnnc1C(NCCNc1ccnc2cc(Cl)ccc12)c1cccc2ccccc12 (stereo unspecified)")
6.33
>>> observed_result("CC(C)(C)n1nnnc1C(Nc1ccc(Nc2ccnc3cc(Cl)ccc23)cc1)c1ccc(Cl)c(Cl)c1 (stereo unspecified)")
5.4
>>> observed_result("COc1ccc(C(Nc2ccc(Nc3ccnc4cc(Cl)ccc34)cc2)c2nnnn2C(C)(C)C)cc1OC (stereo unspecified)")
5.42
>>> observed_result("CC(C)(C)n1nnnc1C(Nc1ccc(Nc2ccnc3cc(Cl)ccc23)cc1)c1ccc(Cl)cc1 (stereo unspecified)")
5.29
>>> observed_result("Cc1ccc(C(Nc2ccc(Nc3ccnc4cc(Cl)ccc34)cc2)c2nnnn2C(C)(C)C)cc1 (stereo unspecified)")
5.39
>>> observed_result("Clc1ccc(C(Nc2ccc(Nc3ccnc4cc(Cl)ccc34)cc2)c2nnnn2C2CCCCC2)cc1 (stereo unspecified)")
3.81

###

// Cmax lookup, one value per entry
experiment: Cmax in Sprague-Dawley rat at 10 mg/kg, po; assay type: ADME, organism-based; design: dose 10 mg/kg, route oral; settings: in vivo
readout: Cmax (ng/mL)

>>> observed_result("CC(C)(C)n1nnnc1C(Nc1ccc(Nc2ccnc3cc(Cl)ccc23)cc1)c1ccc(Cl)cc1 (configuration not stated)")
49.2
>>> observed_result("CC(C)(C)n1nnnc1C(Nc1ccc(Nc2ccnc3cc(Cl)ccc23)cc1)c1ccc(Br)cc1 (configuration not stated)")
44.4

###

assay: Selectivity index, ratio of CC50 for African green monkey Vero cells to IC50 for Plasmodium falciparum; type: functional
Kindly apply the following: Satisfied if Ratio CC50/IC50 is less than 200, Not satisfied in every other case.

>>> cat("COc1ccc(C(Nc2ccc(Nc3ccnc4cc(Cl)ccc34)cc2)c2nnnn2C2CCCCC2)cc1OC (stereo not given)")
"Satisfied"
>>> cat("COc1ccc(C(Nc2ccc(Nc3ccnc4cc(Cl)ccc34)cc2)c2nnnn2C(C)(C)C)cc1OC (stereo not given)")
"Satisfied"
>>> cat("CC(C)(C)n1nnnc1C(NCCCNc1ccnc2cc(Cl)ccc12)c1cccc2ccccc12 (stereo not given)")
"Satisfied"
>>> cat("CC(C)(C)n1nnnc1C(NCCCNc1ccnc2cc(Cl)ccc12)c1ccc(Cl)cc1 (stereo not given)")
"Not satisfied"
>>> cat("CC(C)(C)n1nnnc1C(Nc1ccc(Nc2ccnc3cc(Cl)ccc23)cc1)c1ccc(F)cc1 (stereo not given)")
"Not satisfied"

###

experiment: Selectivity index, ratio of CC50 for African green monkey Vero cells to IC50 for Plasmodium falciparum; assay type: functional
A collection of compounds and their measured Ratio CC50/IC50
readout: Ratio CC50/IC50

>>> observed_result("Clc1ccc2c(Nc3ccc(NC(c4ccc(Br)cc4)c4nnnn4C4CCCCC4)cc3)ccnc2c1 (centres undefined)")
1191.58
>>> observed_result("CC(C)(C)n1nnnc1C(c1ccc(Cl)cc1)N1CCN(c2ccnc3cc(Cl)ccc23)CC1 (centres undefined)")
182.96
>>> observed_result("CC(C)(C)n1nnnc1C(NCCNc1ccnc2cc(Cl)ccc12)c1ccc(Cl)cc1 (centres undefined)")
839.68
>>> observed_result("CCc1ccc(C(Nc2ccc(Nc3ccnc4cc(Cl)ccc34)cc2)c2nnnn2C(C)(C)C)cc1 (centres undefined)")
3652.19
>>> observed_result("CC(C)(C)n1nnnc1C(Nc1ccc(Nc2ccnc3cc(Cl)ccc23)cc1)c1ccc(Br)cc1 (centres undefined)")
2332.43
>>> observed_result("Clc1ccc(C(Nc2ccc(Nc3ccnc4cc(Cl)ccc34)cc2)c2nnnn2C2CCCCC2)cc1 (centres undefined)")
694.18
>>> observed_result("COc1cc(C(Nc2ccc(Nc3ccnc4cc(Cl)ccc34)cc2)c2nnnn2C(C)(C)C)cc(OC)c1OC (centres undefined)")
300.57
>>> observed_result("CC(C)(C)n1nnnc1C(NCCNc1ccnc2cc(Cl)ccc12)c1cccc2ccccc12 (centres undefined)")
305.32
>>> observed_result("CC(C)(C)n1nnnc1C(Nc1ccc(Nc2ccnc3cc(Cl)ccc23)cc1)c1cccc2ccccc12 (centres undefined)")
3815.38
>>> observed_result("CC(C)(C)n1nnnc1C(Nc1ccc(Nc2ccnc3cc(Cl)ccc23)cc1)c1ccc(Cl)cc1 (centres undefined)")
4616.14
>>> observed_result("COc1ccc(C(NCCCNc2ccnc3cc(Cl)ccc23)c2nnnn2C(C)(C)C)cc1OC (centres undefined)")
1662.92
>>> observed_result("COc1ccc(C(Nc2ccc(Nc3ccnc4cc(Cl)ccc34)cc2)c2nnnn2C(C)(C)C)cc1 (centres undefined)")
702.34
>>> observed_result("CC(C)(C)n1nnnc1C(Nc1ccc(Nc2ccnc3cc(Cl)ccc23)cc1)c1ccccc1 (centres undefined)")
2383.47
>>> observed_result("CC(C)(C)n1nnnc1C(Nc1ccc(Nc2ccnc3cc(Cl)ccc23)cc1)c1ccc(Cl)c(Cl)c1 (centres undefined)")
7076.29

###

// reported pIC50 per item
tested on: Plasmodium falciparum; assay: Antimalarial activity against chloroquine-resistant Plasmodium falciparum K1 after 72 hrs by MSF assay; type: functional, organism-based; conditions: K1, 72 h
pIC50: −log10 of the molar value.
readout: pIC50

>>> observed_result("CC(C)(C)n1nnnc1C(NCCNc1ccnc2cc(Cl)ccc12)c1cccc2ccccc12 (centres undefined)")
6.73
>>> observed_result("COc1ccc(C(Nc2ccc(Nc3ccnc4cc(Cl)ccc34)cc2)c2nnnn2C2CCCCC2)cc1OC (centres undefined)")
6.84
>>> observed_result("Cc1ccc(C(Nc2ccc(Nc3ccnc4cc(Cl)ccc34)cc2)c2nnnn2C(C)(C)C)cc1 (centres undefined)")
7.12
>>> observed_result("CC(C)(C)n1nnnc1C(Nc1ccc(Nc2ccnc3cc(Cl)ccc23)cc1)c1ccc(F)cc1 (centres undefined)")
6.17
>>> observed_result("CC(C)(C)n1nnnc1C(c1ccc(Cl)cc1)N1CCN(c2ccnc3cc(Cl)ccc23)CC1 (centres undefined)")
6.80
>>> observed_result("CC(C)(C)n1nnnc1C(NCCCNc1ccnc2cc(Cl)ccc12)c1cccc2ccccc12 (centres undefined)")
6.77
>>> observed_result("CC(C)(C)n1nnnc1C(Nc1ccc(Nc2ccnc3cc(Cl)ccc23)cc1)c1ccc(Cl)c(Cl)c1 (centres undefined)")
6.85
>>> observed_result("CC(C)(C)n1nnnc1C(NCCCNc1ccnc2cc(Cl)ccc12)c1ccc(Cl)cc1 (centres undefined)")
6.12

###

Quick reference for MST among some molecules
test system: Plasmodium yoelii; experiment: Antimalarial activity against chloroquine-resistant Plasmodium yoelii N-67 infected in Swiss mouse assessed as mean survival time at 50 mg/kg, ip qd for 4 days; format: functional; details: route intraperitoneal
readout: MST (days)

>>> observed_result("CC(C)(C)n1nnnc1C(c1ccc(Cl)cc1)N1CCN(c2ccnc3cc(Cl)ccc23)CC1 (centres undefined)")
13
>>> observed_result("CC(C)(C)n1nnnc1C(Nc1ccc(Nc2ccnc3cc(Cl)ccc23)cc1)c1ccc(Cl)cc1 (centres undefined)")
23.6
>>> observed_result("Cc1ccc(C(Nc2ccc(Nc3ccnc4cc(Cl)ccc34)cc2)c2nnnn2C(C)(C)C)cc1 (centres undefined)")
11
>>> observed_result("CC(C)(C)n1nnnc1C(Nc1ccc(Nc2ccnc3cc(Cl)ccc23)cc1)c1ccc(Cl)c(Cl)c1 (centres undefined)")
16.83
